From: patent US20190248900A1

Biological target: T1, ITGA6-Fc
T1 construct: Fc fusion
T1 sequence (P23229 whole entry, species assumed, looked up): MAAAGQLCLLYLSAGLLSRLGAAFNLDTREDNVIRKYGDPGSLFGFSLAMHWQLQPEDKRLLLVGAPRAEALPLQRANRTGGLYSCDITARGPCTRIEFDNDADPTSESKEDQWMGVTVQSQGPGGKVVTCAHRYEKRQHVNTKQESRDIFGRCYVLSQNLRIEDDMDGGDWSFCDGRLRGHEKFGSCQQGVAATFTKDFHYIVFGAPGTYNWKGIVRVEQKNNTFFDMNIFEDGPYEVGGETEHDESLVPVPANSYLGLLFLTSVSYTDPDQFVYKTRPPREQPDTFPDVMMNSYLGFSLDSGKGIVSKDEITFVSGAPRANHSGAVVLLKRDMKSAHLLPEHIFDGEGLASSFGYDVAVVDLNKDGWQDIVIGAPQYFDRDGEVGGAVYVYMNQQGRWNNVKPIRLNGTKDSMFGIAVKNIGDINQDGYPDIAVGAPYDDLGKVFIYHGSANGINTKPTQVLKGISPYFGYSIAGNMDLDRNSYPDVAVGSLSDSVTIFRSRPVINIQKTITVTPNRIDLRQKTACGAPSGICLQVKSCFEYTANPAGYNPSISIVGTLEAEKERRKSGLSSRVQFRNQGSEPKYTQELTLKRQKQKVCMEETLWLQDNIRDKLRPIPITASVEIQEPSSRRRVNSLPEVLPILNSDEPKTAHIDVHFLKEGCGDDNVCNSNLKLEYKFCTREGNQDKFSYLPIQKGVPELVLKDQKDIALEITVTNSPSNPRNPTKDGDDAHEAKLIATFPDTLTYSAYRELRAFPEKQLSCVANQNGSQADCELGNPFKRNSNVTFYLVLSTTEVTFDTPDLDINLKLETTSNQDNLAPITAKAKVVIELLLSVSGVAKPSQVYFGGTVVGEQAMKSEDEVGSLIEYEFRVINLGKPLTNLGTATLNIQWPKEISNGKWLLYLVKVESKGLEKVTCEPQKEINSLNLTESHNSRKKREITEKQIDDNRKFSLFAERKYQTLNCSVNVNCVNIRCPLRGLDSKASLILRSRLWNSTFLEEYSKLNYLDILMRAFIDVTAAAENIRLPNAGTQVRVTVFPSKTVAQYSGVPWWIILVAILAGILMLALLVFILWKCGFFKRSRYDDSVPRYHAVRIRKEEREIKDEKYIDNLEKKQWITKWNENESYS
Assay: scFv-phage ELISA
observed_property: OD490
One number for each entry.

>>> result_number("PD1-51D9 (antibody, V domains shown, scFv-phage in the screening ELISA; whole IgG in the other assays) VH: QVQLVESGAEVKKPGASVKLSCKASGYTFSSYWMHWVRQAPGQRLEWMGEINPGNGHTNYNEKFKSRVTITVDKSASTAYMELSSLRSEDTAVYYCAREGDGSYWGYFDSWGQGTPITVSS VL: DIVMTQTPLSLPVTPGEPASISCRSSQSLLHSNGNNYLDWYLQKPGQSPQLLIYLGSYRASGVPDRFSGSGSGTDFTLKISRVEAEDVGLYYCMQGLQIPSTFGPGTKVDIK")
0.1
>>> result_number("PD1-45F1 (antibody, V domains shown, scFv-phage in the screening ELISA; later whole IgG) VH: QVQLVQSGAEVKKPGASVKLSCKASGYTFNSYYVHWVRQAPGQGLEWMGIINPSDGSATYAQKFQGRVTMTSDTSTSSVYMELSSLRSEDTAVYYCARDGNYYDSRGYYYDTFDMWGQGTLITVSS VL: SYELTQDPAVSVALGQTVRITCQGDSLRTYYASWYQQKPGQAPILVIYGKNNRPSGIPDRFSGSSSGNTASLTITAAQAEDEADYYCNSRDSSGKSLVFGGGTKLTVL")
0.1
>>> result_number("PD1-45D6 (antibody, V domains shown, scFv-phage in the screening ELISA; whole IgG in the other assays) VH: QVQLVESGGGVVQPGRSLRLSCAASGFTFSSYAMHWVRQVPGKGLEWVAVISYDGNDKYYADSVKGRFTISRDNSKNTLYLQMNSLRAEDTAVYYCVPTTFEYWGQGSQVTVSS VL: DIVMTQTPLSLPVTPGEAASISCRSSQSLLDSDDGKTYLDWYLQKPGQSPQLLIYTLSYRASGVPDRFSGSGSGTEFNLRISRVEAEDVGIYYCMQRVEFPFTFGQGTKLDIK")
0.5
>>> result_number("PD1-29H3 (antibody, V domains shown, scFv-phage in the screening ELISA; later whole IgG) VH: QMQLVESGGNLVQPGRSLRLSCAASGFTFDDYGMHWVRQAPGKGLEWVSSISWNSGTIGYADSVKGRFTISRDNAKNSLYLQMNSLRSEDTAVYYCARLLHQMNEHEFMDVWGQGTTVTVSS VL: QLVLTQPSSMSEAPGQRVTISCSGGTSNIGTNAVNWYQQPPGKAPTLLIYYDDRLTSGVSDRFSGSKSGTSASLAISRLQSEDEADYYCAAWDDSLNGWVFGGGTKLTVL")
0.3

stdin: # query: OD490 of entry PD1-44B5 (antibody, V domains shown, scFv-phage in the screening ELISA; later whole IgG) VH: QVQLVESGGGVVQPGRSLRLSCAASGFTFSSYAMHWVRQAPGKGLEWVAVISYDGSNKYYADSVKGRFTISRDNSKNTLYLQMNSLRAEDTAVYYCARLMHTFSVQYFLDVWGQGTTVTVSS VL: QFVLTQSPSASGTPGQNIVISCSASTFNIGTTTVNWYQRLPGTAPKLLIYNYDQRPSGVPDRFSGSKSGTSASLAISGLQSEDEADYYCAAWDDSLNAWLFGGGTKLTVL
stdout: 0.3
